Reported pEC50 by item:
Molecular target: T1, human LIGHT (TNFSF14), full length, membrane-bound (214E allele) (human, UniProt O43557 1-240)
T1 construct: also called membrane LIGHT; human membrane LIGHT
T1 sequence (O43557 whole entry K214E): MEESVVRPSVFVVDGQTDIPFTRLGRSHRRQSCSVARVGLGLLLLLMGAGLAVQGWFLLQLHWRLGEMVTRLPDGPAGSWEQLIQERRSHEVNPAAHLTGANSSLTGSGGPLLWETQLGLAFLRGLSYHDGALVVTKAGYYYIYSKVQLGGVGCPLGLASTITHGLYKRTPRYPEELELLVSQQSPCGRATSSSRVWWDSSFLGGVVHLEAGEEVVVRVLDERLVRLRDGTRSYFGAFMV
Test: flow cytometry, transiently transfected HEK293FF cells
pEC50: −log10 of the molar value.
readout: pEC50

binder	reported
3A07 (antibody, human IgG4, V domains shown, chimeric human IgG4 (S-to-P, L-to-E at 248), human CL; also called Parental 3A07) VH: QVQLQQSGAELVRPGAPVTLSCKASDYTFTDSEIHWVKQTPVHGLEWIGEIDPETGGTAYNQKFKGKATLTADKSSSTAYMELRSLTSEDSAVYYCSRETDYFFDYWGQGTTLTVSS VL: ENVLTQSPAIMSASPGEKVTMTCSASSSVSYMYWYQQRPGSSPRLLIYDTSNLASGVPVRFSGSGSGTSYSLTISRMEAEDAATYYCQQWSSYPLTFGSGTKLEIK	10.00
3D12 (antibody, human IgG4, V domains shown, chimeric: mouse variable domains on human IgG4 HC (S-to-P and L-to-E at 248) and human CL; also called Parental 3D12; 3D12 chimeric) VH: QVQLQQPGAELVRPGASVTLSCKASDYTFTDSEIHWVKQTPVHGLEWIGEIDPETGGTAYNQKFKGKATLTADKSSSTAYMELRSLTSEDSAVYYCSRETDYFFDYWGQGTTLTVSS VL: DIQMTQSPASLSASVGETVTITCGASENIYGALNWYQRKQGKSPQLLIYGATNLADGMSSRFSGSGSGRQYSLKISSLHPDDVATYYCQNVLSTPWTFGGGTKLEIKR	9.70
3C10 (antibody, human IgG4, V domains shown, chimeric human IgG4 (S-to-P, L-to-E at 248), human CL; also called Parental 3C10) VH: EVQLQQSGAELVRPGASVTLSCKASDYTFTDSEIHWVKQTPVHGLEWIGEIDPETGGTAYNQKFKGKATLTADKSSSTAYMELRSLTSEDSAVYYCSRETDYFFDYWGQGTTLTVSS VL: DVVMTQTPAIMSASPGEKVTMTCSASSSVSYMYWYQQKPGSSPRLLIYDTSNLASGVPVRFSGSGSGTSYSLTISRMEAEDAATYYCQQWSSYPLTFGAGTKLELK	9.70
2E08 (antibody, human IgG4, V domains shown, chimeric human IgG4 (S-to-P, L-to-E at 248), human CL; also called Parental 2E08) VH: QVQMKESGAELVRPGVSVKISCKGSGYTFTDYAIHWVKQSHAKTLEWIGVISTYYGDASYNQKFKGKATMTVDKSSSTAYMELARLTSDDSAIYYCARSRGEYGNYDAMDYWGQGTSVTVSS VL: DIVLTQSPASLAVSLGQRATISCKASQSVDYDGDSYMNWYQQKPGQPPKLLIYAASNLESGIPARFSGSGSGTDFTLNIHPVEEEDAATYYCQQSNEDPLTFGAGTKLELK	9.52
3E09 (antibody, V domains shown, chimeric human IgG4 (S-to-P, L-to-E at 248), human CL; also called Parental 3E09) VH: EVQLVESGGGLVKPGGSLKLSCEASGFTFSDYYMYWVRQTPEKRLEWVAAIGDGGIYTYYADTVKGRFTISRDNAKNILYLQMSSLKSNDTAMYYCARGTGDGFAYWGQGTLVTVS VL: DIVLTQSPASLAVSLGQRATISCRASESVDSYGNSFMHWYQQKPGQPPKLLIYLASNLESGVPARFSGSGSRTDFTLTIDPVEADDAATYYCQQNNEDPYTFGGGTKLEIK	8.89

Data origin, for the record: patent US20230035798A1
